biological target: Clostridioides difficile toxin A (Clostridioides difficile, strain not …, UniProt P16154); experiment: SPR; conditions: both partners purified
For each entry below, report its pKd value.
Friendly reminder that pKd comes from taking -log10 of the concentration in mol/L.

Which pKd is listed for A26.8 VHH with engineered Cys4-Cys25 disulfide linkage (VHH) VHH: QVKCEESGGGLVQAGGSLRLSCACSERTFSRYPVAWFRQAPGAEREFVAVISSTGTSTYYADSVKGRFTISRDNAKVTVYLQMNNLKREDTAVYFCAVNSQRTRLQDPNEYDYWGQGTQVTVSS ?
7.90

Which pKd is listed for A26.8 VHH, wild-type (canonical Cys23-Cys104 disulfide linkage only) (VHH) VHH: QVKLEESGGGLVQAGGSLRLSCAASERTFSRYPVAWFRQAPGAEREFVAVISSTGTSTYYADSVKGRFTISRDNAKVTVYLQMNNLKREDTAVYFCAVNSQRTRLQDPNEYDYWGQGTQVTVSS ?
7.78

Which pKd is listed for A26.8 VHH with engineered Cys24-Cys86 disulfide linkage (VHH) VHH: QVKLEESGGGLVQAGGSLRLSCCASERTFSRYPVAWFRQAPGAEREFVAVISSTGTSTYYADSVKGRFTISRDNAKVCVYLQMNNLKREDTAVYFCAVNSQRTRLQDPNEYDYWGQGTQVTVSS ?
7.36
